Assay: BHET released, HPLC; higher = more BHET released; extreme values may be limits of the assay
Details: PET substrate: aFilm; 60 °C; pH 6.5; 24 h

RESIDUES	BHET released
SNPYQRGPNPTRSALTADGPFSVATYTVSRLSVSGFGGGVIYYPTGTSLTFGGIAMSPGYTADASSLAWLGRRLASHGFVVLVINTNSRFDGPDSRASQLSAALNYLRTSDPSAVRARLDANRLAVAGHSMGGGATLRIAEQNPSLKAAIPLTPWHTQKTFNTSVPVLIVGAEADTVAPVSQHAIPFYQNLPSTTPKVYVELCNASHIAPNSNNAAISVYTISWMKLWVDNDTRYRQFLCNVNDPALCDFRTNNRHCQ [LCC-ICCG DAQI]	0 mM
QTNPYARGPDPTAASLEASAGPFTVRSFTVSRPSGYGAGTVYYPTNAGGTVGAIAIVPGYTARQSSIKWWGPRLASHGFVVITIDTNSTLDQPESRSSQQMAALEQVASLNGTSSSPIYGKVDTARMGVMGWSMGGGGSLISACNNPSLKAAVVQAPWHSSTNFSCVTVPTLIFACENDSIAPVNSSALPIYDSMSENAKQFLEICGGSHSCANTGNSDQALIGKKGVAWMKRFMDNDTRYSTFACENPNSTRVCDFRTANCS [Z1-PETase]	0 mM
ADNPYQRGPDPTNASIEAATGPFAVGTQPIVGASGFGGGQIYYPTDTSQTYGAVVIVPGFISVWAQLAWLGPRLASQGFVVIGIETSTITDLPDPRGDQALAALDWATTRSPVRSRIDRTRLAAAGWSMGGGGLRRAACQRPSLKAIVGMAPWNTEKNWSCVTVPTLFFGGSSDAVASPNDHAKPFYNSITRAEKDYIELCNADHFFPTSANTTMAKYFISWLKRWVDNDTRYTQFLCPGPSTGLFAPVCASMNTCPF [CaPETaseM9]	0 mM

* * *

Experiment: BHET released, HPLC; higher = more BHET released; extreme values may be limits of the assay
Settings: PET substrate: cryPow; 70 °C; pH 5.5; 24 h
Each item that follows carries a reported BHET released.

RESIDUES	UNIT OF MEASUREMENT	BHET released
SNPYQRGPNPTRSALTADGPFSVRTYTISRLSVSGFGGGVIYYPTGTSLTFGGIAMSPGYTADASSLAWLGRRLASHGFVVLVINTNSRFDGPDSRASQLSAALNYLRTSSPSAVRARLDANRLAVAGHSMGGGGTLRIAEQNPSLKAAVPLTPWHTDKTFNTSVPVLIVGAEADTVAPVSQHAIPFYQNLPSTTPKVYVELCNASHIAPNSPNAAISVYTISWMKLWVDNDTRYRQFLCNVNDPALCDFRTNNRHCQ [LCC-ICCG RIP]	mM	0.00217
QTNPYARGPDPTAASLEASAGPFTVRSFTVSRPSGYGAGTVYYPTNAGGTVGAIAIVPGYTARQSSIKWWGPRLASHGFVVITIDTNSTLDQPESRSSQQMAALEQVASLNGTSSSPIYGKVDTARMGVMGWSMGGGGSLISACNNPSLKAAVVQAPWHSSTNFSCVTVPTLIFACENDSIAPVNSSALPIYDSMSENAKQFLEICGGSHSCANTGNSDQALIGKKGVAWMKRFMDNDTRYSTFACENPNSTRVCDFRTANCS [Z1-PETase]	mM	0
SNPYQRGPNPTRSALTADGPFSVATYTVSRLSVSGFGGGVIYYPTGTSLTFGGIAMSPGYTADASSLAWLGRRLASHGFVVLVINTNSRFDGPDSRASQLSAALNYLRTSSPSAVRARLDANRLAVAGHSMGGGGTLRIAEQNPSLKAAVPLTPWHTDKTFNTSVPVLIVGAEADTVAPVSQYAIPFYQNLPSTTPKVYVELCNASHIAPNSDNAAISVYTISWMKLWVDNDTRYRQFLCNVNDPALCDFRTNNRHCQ [LCC-A2]	mM	0
